Test name: AUC in rat at 5 mg/kg, po
Type: ADME, organism-based
Design: dose 5 mg/kg, route oral
Conditions used: plasma
Assay readout: AUC (ng·h/mL)

> print(dat)
                                   molecule  endpoint.value
1  C[C@@H]1CCCN1CCCOc1ccc2c(c1)CCC1CC(=O)NN=C21 (mixture of isomers)              96

(a) C[C@@H]1CCCN1CCCOc1ccc2c(c1)CCc1cc(=O)n(C)nc1-2
(b) O=C1CC2CCc3cc(OC4CCN(C5CCC5)CC4)ccc3C2=NN1 (racemic)
(c) C[C@@H]1CCCN1CCCOc1ccc2c(c1)CCc1cc(=O)[nH]nc1-2
Rank the items in ascending order with respect to AUC. I would appreciate it if you listed the labels in the requested order.
a, c, b
(a: 80 ng·h/mL, c: 191 ng·h/mL, b: 468 ng·h/mL)

* * *

Here's a batch of molecules along with measured Ki for Histamine H3 receptor (Rattus norvegicus, UniProt Q9QYN8).
Assay readout: Ki (nM)

These recorded examples may help you get a feel for the data.
> print(dat)
                                   molecule                             target.entity  endpoint.value
1  C[C@@H]1CCCN1CCCOc1ccc2c(c1)CCc1cc(=O)n(-c3ccccc3)nc1-2  Histamine H3 receptor (Rattus norvegicus, UniProt Q9QYN8)              23
2  O=C1CC2CCc3cc(OC4CCN(C5CCC5)CC4)ccc3C2=NN1 (racemic)  Histamine H3 receptor (Rattus norvegicus, UniProt Q9QYN8)              26
3  CC(C)n1nc2c(cc1=O)CCc1cc(OCCCN3CCC[C@H]3C)ccc1-2  Histamine H3 receptor (Rattus norvegicus, UniProt Q9QYN8)              17

(P) C[C@@H]1CCCN1CCCOc1ccc2c(c1)CCc1cc(=O)n(C)nc1-2
(Q) O=c1cc2c(nn1Cc1ccccc1)-c1ccc(OCCCN3CCCCC3)cc1CC2
Exercise: compare P and Q ; which one has the greater Ki? Answer by quoting the chosen item's label.
Q

* * *

Test name: Drug uptake in rat brain at 5 mg/kg, po after 6 hrs
Assay type: ADME, organism-based
Set-up: dose 5 mg/kg, route oral
Conditions used: read-out: Drug uptake
Assay readout: concentration at 6 h (nM)
Please give a number only; it is taken to be in nM.

If you can, please state the reported concentration at 6 h value of O=C1CC2CCc3cc(OC4CCN(C5CCC5)CC4)ccc3C2=NN1 (racemic) .
780

* * *

Ki, Histamine H3 receptor (Homo sapiens, UniProt Q9Y5N1), per-entry values.
Assay readout: Ki (nM)

Past entries and their recorded results:
> print(dat)
                                   molecule  assay.readout  endpoint.value
1  C[C@@H]1CCCN1CCCOc1ccc2c(c1)CCC1CC(=O)NN=C21 (mixture of isomers)             Ki              15
2  C[C@@H]1CCCN1CCCOc1ccc2c(c1)CCc1cc(=O)n(C)nc1-2             Ki             3.6

(a) C[C@@H]1CCCN1CCCOc1ccc2c(c1)CCc1cc(=O)[nH]nc1-2
(b) O=C1CC2CCc3cc(OC4CCN(C5CCC5)CC4)ccc3C2=NN1 (racemic)
Param metric = Ki; output whichever of a , b has the minimum value. Your choice should be expressed through its label.
a
